experimental.system: Glutamate receptor ionotropic, NMDA 2B (Rattus norvegicus) (UniProt Q00960)
Sequence (Q00960 27-1482 limits assumed): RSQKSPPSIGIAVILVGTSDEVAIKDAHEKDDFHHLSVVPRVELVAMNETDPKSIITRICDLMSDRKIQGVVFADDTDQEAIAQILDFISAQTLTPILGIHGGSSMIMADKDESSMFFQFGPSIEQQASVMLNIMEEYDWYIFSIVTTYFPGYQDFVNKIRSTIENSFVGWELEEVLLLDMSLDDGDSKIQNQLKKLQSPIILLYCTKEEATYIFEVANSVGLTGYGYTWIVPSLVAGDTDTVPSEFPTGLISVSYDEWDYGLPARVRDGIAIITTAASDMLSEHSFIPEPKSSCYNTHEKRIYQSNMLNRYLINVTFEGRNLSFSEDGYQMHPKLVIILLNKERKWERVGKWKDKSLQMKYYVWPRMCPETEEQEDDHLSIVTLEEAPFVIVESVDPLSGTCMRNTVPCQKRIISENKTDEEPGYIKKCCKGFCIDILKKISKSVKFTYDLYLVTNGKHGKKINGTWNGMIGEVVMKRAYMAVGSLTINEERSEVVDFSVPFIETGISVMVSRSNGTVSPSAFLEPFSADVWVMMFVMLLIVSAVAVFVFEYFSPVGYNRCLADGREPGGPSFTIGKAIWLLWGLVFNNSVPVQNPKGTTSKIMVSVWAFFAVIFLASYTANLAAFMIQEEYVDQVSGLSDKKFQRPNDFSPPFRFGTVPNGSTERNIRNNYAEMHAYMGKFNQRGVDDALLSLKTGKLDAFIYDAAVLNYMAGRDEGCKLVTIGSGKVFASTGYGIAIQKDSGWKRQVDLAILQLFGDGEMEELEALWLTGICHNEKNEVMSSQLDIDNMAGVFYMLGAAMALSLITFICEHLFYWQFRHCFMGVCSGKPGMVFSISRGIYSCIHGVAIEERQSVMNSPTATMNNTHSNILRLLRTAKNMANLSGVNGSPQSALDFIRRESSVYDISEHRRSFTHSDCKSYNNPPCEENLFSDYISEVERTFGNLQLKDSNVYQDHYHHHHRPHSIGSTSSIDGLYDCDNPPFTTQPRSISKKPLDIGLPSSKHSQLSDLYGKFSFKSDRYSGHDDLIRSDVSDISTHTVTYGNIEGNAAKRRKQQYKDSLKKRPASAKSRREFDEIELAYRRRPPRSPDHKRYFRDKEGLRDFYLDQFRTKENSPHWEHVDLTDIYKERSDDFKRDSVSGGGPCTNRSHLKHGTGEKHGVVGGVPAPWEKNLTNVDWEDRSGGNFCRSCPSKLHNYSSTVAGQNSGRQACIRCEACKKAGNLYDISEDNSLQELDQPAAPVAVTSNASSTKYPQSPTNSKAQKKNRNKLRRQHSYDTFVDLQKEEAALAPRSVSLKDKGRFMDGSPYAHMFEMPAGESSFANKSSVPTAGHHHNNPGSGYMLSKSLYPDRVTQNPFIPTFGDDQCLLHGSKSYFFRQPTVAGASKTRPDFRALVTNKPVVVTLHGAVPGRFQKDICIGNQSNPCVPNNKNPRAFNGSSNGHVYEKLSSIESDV
procedure.text: Displacement of [3H]ifenprodil from GluN2B/NMDA in Wistar rat cerebral cortex at 10 uM after 120 mins by scintillation counting
Format: tissue-based
Entry flag: true (1) if Activity reaches 10%; false (0) if it does not.

As a guide, the following entries are already answered.
1. COc1cccc2c(C(=O)C(=O)N3CCC(Cc4ccccc4)CC3)c[nH]c12 true (1)
2. COc1ccc2c(C(=O)CN3CCC(Cc4ccccc4)CC3)c[nH]c2c1 false (0)
3. COc1ccc2[nH]cc(C(=O)CN3CCC(Cc4ccccc4)CC3)c2c1 true (1)
4. O=C(CN1CCN(Cc2ccccc2)CC1)c1c[nH]c2ccc(O)cc12 true (1)
5. O=C(CN1CCC(Cc2ccccc2)CC1)c1c[nH]c2cccc(O)c12 true (1)

Request: Reported Activity reaches at least 10% for `COc1ccc2[nH]cc(C(=O)C(=O)N3CCC(Cc4ccccc4)CC3)c2c1` ?
Result: false (0)

Request: Reported Activity reaches at least 10% for `O=C(CN1CCN(Cc2ccccc2)CC1)c1c[nH]c2ccccc12` ?
Result: true (1)

Request: Reported Activity reaches at least 10% for `COc1cccc2[nH]cc(C(=O)C(=O)N3CCC(Cc4ccccc4)CC3)c12` ?
Result: true (1)

Request: Reported Activity reaches at least 10% for `O=C(CN1CCC(Cc2ccccc2)CC1)c1c[nH]c2c(O)cccc12` ?
Result: true (1)

Request: Reported Activity reaches at least 10% for `COc1cccc2[nH]cc(C(=O)CN3CCC(Cc4ccccc4)CC3)c12` ?
Result: true (1)

----------
Each entry below carries its measured pIC50, system: UniProt Q00960.
One number for each entry, as −log10 of the molar value.

In the examples that follow, each entry is paired with its recorded pIC50.
1) O=C(C(=O)N1CCC(Cc2ccccc2)CC1)c1c[nH]c2c(O)cccc12 5.70
2) COc1cccc2[nH]cc(C(=O)CN3CCC(Cc4ccccc4)CC3)c12 6.49
3) O=C(CN1CCC(Cc2ccccc2)CC1)c1c[nH]c2c(O)cccc12 5.15

Continue with the compound presented below.
Field pIC50 (entry `O=C(CN1CCC(Cc2ccccc2)CC1)c1c[nH]c2cc(O)ccc12` ) reads 7.77

----------
System: Mus musculus
procedure.text: Anticonvulsant activity in DBA/2 mouse assessed as inhibition of audiogenic tonic seizures administered as ip, 30 mins prior to auditory stimulation measured for 60 secs
Format: functional
details: DBA/2, ip
Record form. Attribute: ED50. Fill in for each entry.
Give bare numbers, in µmol/kg.

1. O=C(C(=O)N1CCC(Cc2ccccc2)CC1)c1c[nH]c2cc(O)ccc12 38.9
2. COc1ccc2c(C(=O)CN3CCC(Cc4ccccc4)CC3)c[nH]c2c1 30.1
3. COc1ccc2[nH]cc(C(=O)CN3CCN(Cc4ccccc4)CC3)c2c1 63.8
4. COc1cccc2c(C(=O)C(=O)N3CCC(Cc4ccccc4)CC3)c[nH]c12 27.4
5. COc1cccc2c(C(=O)CN3CCC(Cc4ccccc4)CC3)c[nH]c12 35.8
6. O=C(C(=O)N1CCC(Cc2ccccc2)CC1)c1c[nH]c2c(O)cccc12 36.2

For every listed record, write down its ED50.
1. COc1cccc2[nH]cc(C(=O)C(=O)N3CCC(Cc4ccccc4)CC3)c12
2. COc1cccc2[nH]cc(C(=O)CN3CCC(Cc4ccccc4)CC3)c12

Result:
1: 76.7; 2: 16.2

For every listed record, write down its ED50.
1. O=C(CN1CCC(Cc2ccccc2)CC1)c1c[nH]c2c(O)cccc12
2. O=C(CN1CCC(Cc2ccccc2)CC1)c1c[nH]c2cc(O)ccc12

Result:
53.8
53.7
